# Test system: SK-MEL-2 melanoma
# test description: NCI-60 one-dose screen, 48 h (100 = growth as untreated, 0 = no growth, -100 = all killed)
# run conditions: 10 µM unless noted
This is part of a sample that, as a whole, favours compounds with a hit. Of some 83,000 tested, about 20% had one in any assay.
endpoint name: growth (%)
Give bare numbers, in %.

# compound, unit annotation, growth
measured = [
    ("CC1CN(C2CCCCC2)C(=O)NC1=O (stereo unspecified)", "%", 100),
]

Your task in this section: give growth for each listed record.
1. c1ccc(-c2oc(-c3ccccc3)c3ccccc23)cc1
2. Nc1ccn(C2O[C@H](CO)[C@@H](O)[C@@H]2O)c(=O)n1 (stereo partly specified)
3. COc1cccc(N2CCN(c3cccc(C)n3)CC2)c1
4. COC(=O)c1cc2oc(/C=N\NC(=O)c3cc4oc(C)c(C)c4[nH]3)cc2[nH]1
5. CSc1nc2nc3c(c(-c4ccc(C)cc4)c2c(=O)[nH]1)CN(C)C/C3=C\c1ccc(C)cc1

### Response
1. 104
2. 88.3
3. 94
4. 109
5. 112
